B1: Gamma-crystallin S, residues 96 to 176; numbered along this chain, P22914 (parent)
chain: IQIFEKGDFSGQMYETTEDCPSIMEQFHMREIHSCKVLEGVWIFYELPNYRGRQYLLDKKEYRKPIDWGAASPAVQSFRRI

# Variants of: B1
# Assay Method Text: abundance fitness (aPCA) (normalised: wild type 0, dead -1); higher = more abundant; growth selection in yeast, the domain comes from the species named
# Condition Set: Homo sapiens
Property Label: abundance fitness

[
  {
    "Sequence Code": "IQIFEKGDFSGQMYETTEDCPSIMEQFHMREIHSCKVLEGVWIFYELPNYRCRQYLLDKKEYRKPIDWGAASPAVQSFRRI [G52C]",
    "Property Label": "abundance fitness",
    "Reported Result": -0.631
  },
  {
    "Sequence Code": "IQIFEKGDFSGQMYETTEDCPSIMEQFHMREIHSCKVLEGVWIFYELPNYRGRQYLLDKKEYRKPIDWGTASPAVQSFRRI [A70T]",
    "Property Label": "abundance fitness",
    "Reported Result": -0.037
  },
  {
    "Sequence Code": "IQIFEKGDFSGQMYETTEDCPSNMEQFHMREIHSCKVLEGVWIFYELPNYRGRQYLLDKKEYRKPIDWGAASPAVQSFRRI [I23N]",
    "Property Label": "abundance fitness",
    "Reported Result": -0.041
  },
  {
    "Sequence Code": "IWIFEKGDFSGQMYETTEDCPSIMEQFHMREIHSCKVLEGVWIFYELPNYRGRQYLLDKKEYRKPIDWGAASPAVQSFRRI [Q2W]",
    "Property Label": "abundance fitness",
    "Reported Result": 0.003
  },
  {
    "Sequence Code": "IQIFEKGDFDGQMYETTEDCPSIMEQFHMREIHSCKVLEGVWIFYELPNYRGRQYLLDKKEYRKPIDWGAASPAVQSFRRI [S10D]",
    "Property Label": "abundance fitness",
    "Reported Result": -0.12
  },
  {
    "Sequence Code": "IQIFEKGDFSGQMYETTEDCPSIMEQFHMREIHSCKKLEGVWIFYELPNYRGRQYLLDKKEYRKPIDWGAASPAVQSFRRI [V37K]",
    "Property Label": "abundance fitness",
    "Reported Result": 0.027
  },
  {
    "Sequence Code": "IQIFEKGDFSGQMYETTEDCPSIMEQFHMREIHSCKVLEGVWIFYELPNYRGRQYLLDKKEYFKPIDWGAASPAVQSFRRI [R63F]",
    "Property Label": "abundance fitness",
    "Reported Result": -0.025
  },
  {
    "Sequence Code": "IQIFEKGDFSGQMYETTEDCPSIMEQFHMRQIHSCKVLEGVWIFYELPNYRGRQYLLDKKEYRKPIDWGAASPAVQSFRRI [E31Q]",
    "Property Label": "abundance fitness",
    "Reported Result": 0.02
  },
  {
    "Sequence Code": "IQIFEKGDFSGQMYETTEDCPSIMEQFHMREIHSCKVLEGVWIFYELPNYRGRQYLLDKKEYRKPIDWGIASPAVQSFRRI [A70I]",
    "Property Label": "abundance fitness",
    "Reported Result": 0.111
  },
  {
    "Sequence Code": "IQIFEKGDFSGQMYETTEDCPSIMEQFHMREIHSCKVLEGIWIFYELPNYRGRQYLLDKKEYRKPIDWGAASPAVQSFRRI [V41I]",
    "Property Label": "abundance fitness",
    "Reported Result": -0.101
  },
  {
    "Sequence Code": "IQIFEKGDFSGQMYETTEDCPSIMEQFHMREIHSVKVLEGVWIFYELPNYRGRQYLLDKKEYRKPIDWGAASPAVQSFRRI [C35V]",
    "Property Label": "abundance fitness",
    "Reported Result": 0.021
  },
  {
    "Sequence Code": "IQIFEKGDFSGQMYETTEDCPSIMEQFHMREIHSCKVLEGVWIFYELPNYRGRQYRLDKKEYRKPIDWGAASPAVQSFRRI [L56R]",
    "Property Label": "abundance fitness",
    "Reported Result": 0.191
  },
  {
    "Sequence Code": "IQIFEKGDFSGQMYETTEDCPSIMEQFHMREIHSCKVLEGVWIPYELPNYRGRQYLLDKKEYRKPIDWGAASPAVQSFRRI [F44P]",
    "Property Label": "abundance fitness",
    "Reported Result": -1.11
  },
  {
    "Sequence Code": "IIIFEKGDFSGQMYETTEDCPSIMEQFHMREIHSCKVLEGVWIFYELPNYRGRQYLLDKKEYRKPIDWGAASPAVQSFRRI [Q2I]",
    "Property Label": "abundance fitness",
    "Reported Result": 0.221
  },
  {
    "Sequence Code": "IQIFEKGDFSGQMYETTEDCPSIMEQFHMREIHSCKVLEGVWIFYELPNYRVRQYLLDKKEYRKPIDWGAASPAVQSFRRI [G52V]",
    "Property Label": "abundance fitness",
    "Reported Result": -1.05
  },
  {
    "Sequence Code": "IQIFEAGDFSGQMYETTEDCPSIMEQFHMREIHSCKVLEGVWIFYELPNYRGRQYLLDKKEYRKPIDWGAASPAVQSFRRI [K6A]",
    "Property Label": "abundance fitness",
    "Reported Result": 0.007
  },
  {
    "Sequence Code": "IQIFEKGDFSGQMYETTEDCPSIMEQFHMREIHSCKVLEGVWIFYELPNYRGRQVLLDKKEYRKPIDWGAASPAVQSFRRI [Y55V]",
    "Property Label": "abundance fitness",
    "Reported Result": -0.128
  },
  {
    "Sequence Code": "IQIFEKGDFSGQMYETTEDCPSIMEQFHMHEIHSCKVLEGVWIFYELPNYRGRQYLLDKKEYRKPIDWGAASPAVQSFRRI [R30H]",
    "Property Label": "abundance fitness",
    "Reported Result": 0.026
  },
  {
    "Sequence Code": "TQIFEKGDFSGQMYETTEDCPSIMEQFHMREIHSCKVLEGVWIFYELPNYRGRQYLLDKKEYRKPIDWGAASPAVQSFRRI [I1T]",
    "Property Label": "abundance fitness",
    "Reported Result": -0.191
  },
  {
    "Sequence Code": "IQIFEKGDFSGQMYETTEDCPSIMEQFHMREIHSPKVLEGVWIFYELPNYRGRQYLLDKKEYRKPIDWGAASPAVQSFRRI [C35P]",
    "Property Label": "abundance fitness",
    "Reported Result": -0.788
  },
  {
    "Sequence Code": "IQIFEKGDFSGQMYETTEDCSSIMEQFHMREIHSCKVLEGVWIFYELPNYRGRQYLLDKKEYRKPIDWGAASPAVQSFRRI [P21S]",
    "Property Label": "abundance fitness",
    "Reported Result": 0.019
  },
  {
    "Sequence Code": "IQIFEKADFSGQMYETTEDCPSIMEQFHMREIHSCKVLEGVWIFYELPNYRGRQYLLDKKEYRKPIDWGAASPAVQSFRRI [G7A]",
    "Property Label": "abundance fitness",
    "Reported Result": 0.043
  },
  {
    "Sequence Code": "IQIFEKGDFSGQMYETTEDCPSIMEDFHMREIHSCKVLEGVWIFYELPNYRGRQYLLDKKEYRKPIDWGAASPAVQSFRRI [Q26D]",
    "Property Label": "abundance fitness",
    "Reported Result": 0.073
  },
  {
    "Sequence Code": "IQIFEKGDFSGQMYETTYDCPSIMEQFHMREIHSCKVLEGVWIFYELPNYRGRQYLLDKKEYRKPIDWGAASPAVQSFRRI [E18Y]",
    "Property Label": "abundance fitness",
    "Reported Result": -0.032
  }
]
